# test.method.notes: in vitro
# Type: cell-based
# test.conditions: dog
Would you mind telling me the reported CC50 at 72 h of each entry?

{"compound": "Cc1cc(-c2noc(C(F)(F)F)n2)ccc1N1CCN(C(=O)c2c(-c3ccccc3)noc2C)CC1 [Compound 35b]", "CC50 at 72 h": "> 604 µM"}

Proceeding to the next compound to report its CC50 at 72 h.
Task: Give the measured CC50 at 72 h for Cc1cc(-c2noc(C(F)(F)F)n2)ccc1N1CCN(C(=O)c2cc(-c3ccccc3)no2)CC1 [Compound 35a]
Result: 1450 µM

====

# test.method.notes: in vitro
# Type: cell-based
# test.conditions: African green monkey
Threshold 2000 µM. CC50 at 24 h below it: TRUE. CC50 at 24 h at it or above: FALSE.

{"compound": "Cc1cc(-c2noc(C(F)(F)F)n2)ccc1NC(=O)CCc1cc(C(=O)N(C)C)no1", "assigned.label": "TRUE"}
{"compound": "CCOC(=O)c1cc(CCCSc2ccc(-c3noc(C(F)(F)F)n3)cc2C)on1", "assigned.label": "TRUE"}

Task: Is it true that CC50 at 24 h reported for CCOC(=O)c1cc(CCC(=O)Nc2ccc(-c3noc(C(F)(F)F)n3)cc2C)on1 [Compound 20a] is less than 2000 µM?
Result: TRUE

Task: State whether 2000 µM exceeds CC50 at 24 h recorded for Cc1cc(CN2CCN(c3ccc(-c4noc(C(F)(F)F)n4)cc3C)CC2)on1 [Compound 28b] .
Result: FALSE

Task: # TODO verify CC50 at 24 h < 2000 µM strictly for this compound: Cc1cc(CCCSc2ccc(-c3noc(C(F)(F)F)n3)cc2C)on1
Result: FALSE

Task: Does the reported CC50 at 24 h of the following compound sit strictly below 2000 µM? CCOC(=O)c1cc(CCC(=O)Oc2ccc(-c3noc(C(F)(F)F)n3)cc2C)on1 [Compound 12a]
Result: TRUE

From: paper PMC7144106
